test: inhibitors of GR-EGFP nuclear translocation, primary screen, dynein cargo transport inhibitor project, imaging, high-content, 3617.4 mouse cells (AID 1381); conditions: measured here: cytoplasmic GR-EGFP intensity, at 20 µM, stronger effect = higher value, stimulated with dexamethasone, 1 µM
Hit rate of the full screen: of about 220,000 compounds, about 1,000 (0.45%) were called active. The sample as a whole holds a higher share of actives than the screen did.
VALUE TYPE: z-score
Write the value as a bare number.

Reference set, count: 3
COc1ccc(C2/C=C\CN(S(=O)(=O)c3cccs3)CC(=O)N2Cc2ccc(F)cc2)cc1 (stereo not drawn)    -0.824
CC(C)CNc1ncnc2c1cnn2Cc1ccc(Cl)cc1    -0.294
Cc1ccc2nc(Nc3ncc4c(n3)CC(C)(C)CC4=O)nc(C)c2c1    -0.285

Retrieve z-score measured for `COc1ccc(-n2cnc3cc(C(=O)NC4CCCC4)ccc32)cc1` and print it.
-0.235

Retrieve z-score measured for COc1ccc(C(CCN(Cc2ccc(OC)c(OC)c2)C(=O)CCl)c2ccccc2)cc1 (stereo not drawn) and print it.
0.893

Retrieve z-score measured for `O=C(CCCOc1ccccc1)NCc1ccco1` and print it.
-0.00359

Retrieve z-score measured for `CCOC(=O)CN(Cc1ccc(OC)c(OC)c1)S(=O)(=O)c1ccc(OC)cc1` and print it.
-0.0278

Retrieve z-score measured for `O=C(Nc1ccc(N2CCOCC2)cc1)c1ccc2c(c1)OCO2` and print it.
-0.257

Retrieve z-score measured for `CCCN(c1ccc(C)cc1)c1nc(=O)c2cccnc2s1` and print it.
-0.295

Retrieve z-score measured for `CCOc1ccc(C(C)=O)cc1CSc1nnc(-c2ccncc2)n1CCOC` and print it.
-0.242

====

Reported z-score values for the following compounds.
test: inhibitors of GR-EGFP nuclear translocation, primary screen, dynein cargo transport inhibitor project, imaging, high-content, 3617.4 mouse cells (AID 1381); settings: at 20 µM, stronger effect = lower value, stimulated with dexamethasone, 1 µM
The campaign covered roughly 220,000 compounds. About 1,000 (0.45%) were called active. The full list was thinned out, with actives kept by preference.

Reference set, count: 5
Cn1c2ccccc2c(=O)c2c(O)cccc21    -0.39 (inactive)
Cc1ccc(CN2CCC(N3CCC(C(=O)NCC4CCCO4)CC3)CC2)o1 (configuration not stated)    0.0309 (inactive)
Cc1ccccc1NC(=S)Nc1cccc([N+](=O)[O-])c1    -0.523 (inactive)
Cc1c(Cl)cccc1NC(=O)CC1SC(=NCC2CCCO2)NC1=O (configuration not stated)    -0.0448 (inactive)
N#CC1=C(N)Oc2c(sc3ccccc23)C1c1ccco1 (configuration not stated)    -0.943 (inactive)

Retrieve z-score measured for `Cc1ccc(OCC(=O)Nc2cccc3c2CCCC3)cc1C` and print it.
-0.29 (inactive)

Retrieve z-score measured for Cc1ccc(C(C)NC(=O)Cn2nc(C)c([N+](=O)[O-])c2C)cc1 (configuration not stated) and print it.
-0.784 (inactive)

Retrieve z-score measured for `Cn1c(=O)c([N+](=O)[O-])c(Oc2ccccc2)c2ccccc21` and print it.
-6.51 (active)

Retrieve z-score measured for Cc1cc(C)c(C#N)c(SCc2[nH]nc3c2C(c2ccccc2)C(C#N)=C(N)O3)n1 (configuration not stated) and print it.
-0.933 (inactive)

Retrieve z-score measured for `COc1cc2c(cc1OC)C(Nc1ccc(S(N)(=O)=O)cc1)=NC(C)(C)C2` and print it.
0.371 (inactive)

Retrieve z-score measured for `CCOc1cc(N2CCOCC2)c(OCC)cc1NC(=O)C1=NN(c2cccc(C)c2)C(=O)CC1` and print it.
0.424 (inactive)

Retrieve z-score measured for `CC(C)(C)c1cc(NC(=O)NN2CCOCC2)nn1-c1c(Cl)cc(Cl)cc1Cl` and print it.
0.305 (inactive)

Retrieve z-score measured for `Cc1cccc(Oc2c([N+](=O)[O-])c(=O)n(C)c3ccccc23)c1` and print it.
-4.31 (active)

Retrieve z-score measured for `CC(=O)Nc1cccc([N+](=O)[O-])c1` and print it.
0.101 (inactive)

====

Reported z-score values for the following compounds.
assay: inhibitors of GR-EGFP nuclear translocation, primary screen, dynein cargo transport inhibitor project, imaging, high-content, 3617.4 mouse cells (AID 1381); conditions: measured here: nuclear GR-EGFP intensity, at 20 µM, stronger effect = lower value, stimulated with dexamethasone, 1 µM
About 1,000 (0.45%) of roughly 220,000 compounds were called active. Shown is part of a subset that was picked to be rich in actives.
Write the value as a bare number.

Retrieve z-score measured for `CCN(CC)C(=O)CN(c1cccc([N+](=O)[O-])c1)S(=O)(=O)c1ccccc1` and print it.
-0.263

Retrieve z-score measured for `NS(=O)(=O)c1ccc(CCNC(=O)NC2CCCCC2)cc1` and print it.
0.126

Retrieve z-score measured for `O=C1c2cccc3cc(Br)cc(c23)C(=O)N1Nc1ccccc1` and print it.
0.671

====

test: inhibitors of GR-EGFP nuclear translocation, primary screen, dynein cargo transport inhibitor project, imaging, high-content, 3617.4 mouse cells (AID 1381); conditions: at 50 µM, stronger effect = lower value, stimulated with dexamethasone, 1 µM
The whole screen tested about 220,000 compounds, of which about 1,000 (0.45%) were called active. This excerpt belongs to a sample that is enriched for actives.
# Satisfied = z-score below -3 (exclusive); Not satisfied = z-score at/above -3

CCN(Cc1nc2ccccc2c(=O)[nH]1)Cc1cc(=O)oc2cc(C)c(C)cc12    Not satisfied
CC(=O)Nc1ccccc1OC(=O)N1CCOCC1    Not satisfied
Cc1cc(C)c2c3c(sc2n1)C(c1ccccc1)C(C#N)=C(N)O3 (stereo not given)    Satisfied
CCCCCCc1cc2cc(-c3nnc(-c4cccc(OC)c4)o3)c(=O)oc2cc1O    Not satisfied

# ---- query compound ----
Does the reported z-score of the following compound sit strictly below -3? `Cc1ccc(Cn2c(C)nc3c(c2=O)c2nc4ccccc4nc2n3Cc2ccco2)cc1`
Satisfied

====

assay: inhibitors of GR-EGFP nuclear translocation, primary screen, dynein cargo transport inhibitor project, imaging, high-content, 3617.4 mouse cells (AID 1381); details: measured here: cell count per field, at 50 µM, stimulated with dexamethasone, 1 µM
In all, about 220,000 compounds went through this assay and about 1,000 (0.45%) were called active. Shown is part of a subset that was picked to be rich in actives.
The recorded z-score of each item maps onto one of these classes: zone 1: < -0.4; zone 2: ≥ -0.4 and < 0.4; zone 3: ≥ 0.4

O=c1[nH]c2ccccc2n2c(-c3ccccc3)nnc12    zone 2
CCOC(=O)c1cc2c(ccn2C)n1CC(=O)N1CCC(C)CC1    zone 3
Cc1ccc(-c2cc(C(=O)NCC3CCCO3)c3ccccc3n2)o1 (stereo not drawn)    zone 3

# ---- query molecule ----
Which z-score band matches `Cc1ccc(Cn2c(C)nc3c(c2=O)c2nc4ccccc4nc2n3Cc2ccco2)cc1` ?
zone 1

====

assay: inhibitors of GR-EGFP nuclear translocation, primary screen, dynein cargo transport inhibitor project, imaging, high-content, 3617.4 mouse cells (AID 1381); details: measured here: nuclear GR-EGFP intensity, at 20 µM, stronger effect = lower value, stimulated with dexamethasone, 1 µM
Among all 220,000 compounds or so, about 1,000 (0.45%) were called active. Shown is part of a subset that was picked to be rich in actives.
VALUE TYPE: z-score
Write the value as a bare number.

Reference set, count: 6
Cc1ccccc1NC(=S)Nc1cccc([N+](=O)[O-])c1    -0.37
Nc1nnn(CC(=O)N/N=C/c2ccc(O)cc2)n1    0.283
CC(=O)Nc1cccc([N+](=O)[O-])c1    0.092
COc1ccc(Cl)cc1CSc1ncn[nH]1    0.812
Cc1c(Cl)cccc1NC(=O)CC1SC(=NCC2CCCO2)NC1=O (configuration not stated)    0.413
Cc1ccccc1C(=O)Nc1ccc(N2CCCCCC2)cc1    0.497

Retrieve z-score measured for `Cc1ccc(/C=N/NC(=S)NC2CCCCC2)o1` and print it.
-0.608

Retrieve z-score measured for `O=C1C=CC(=O)N1c1ccc(N2CCCCC2)cc1` and print it.
-1.81

Retrieve z-score measured for `O=C(/C=C/Sc1ncn[nH]1)c1ccc(Cl)cc1` and print it.
-1.6

Retrieve z-score measured for `CN1CCN(C(=O)/C(=C\c2cccs2)NC(=O)c2cccs2)CC1` and print it.
-0.212

Retrieve z-score measured for `NNC(=O)c1ccc(Cl)cc1Cl` and print it.
0.206

Retrieve z-score measured for CC(=O)NCC(=O)N1CCCC(C(=O)c2ccc3c4c(cccc24)CC3)C1 (configuration not stated) and print it.
0.261

====

Reported z-score values for the following molecules.
assay: inhibitors of GR-EGFP nuclear translocation, primary screen, dynein cargo transport inhibitor project, imaging, high-content, 3617.4 mouse cells (AID 1381); conditions: measured here: cytoplasmic GR-EGFP intensity, at 20 µM, stronger effect = higher value, stimulated with dexamethasone, 1 µM
In all, about 220,000 compounds went through this assay and about 1,000 (0.45%) were called active. The full list was thinned out, with actives kept by preference.
Write the value as a bare number.

O=c1oc(/C=C/c2ccccc2)nc2ccccc12    -0.0815
CCn1c(SCC(=O)Nc2nc(C)cs2)nnc1C(C)NC(=O)c1ccccc1 (stereo unspecified)    -0.247
Cc1ccc(CN2CCN(Cc3ccc(OCCO)cc3)CC2CCO)o1 (stereo unspecified)    -0.289

Retrieve z-score measured for `CCOC(=O)C1(S(=O)(=O)c2ccccc2)CCN(Cc2ccccc2)CC1` and print it.
-0.189

Retrieve z-score measured for `COc1ccc(CN(Cc2ccc(OC)cc2)C(=O)c2cccs2)cc1` and print it.
-0.256

Retrieve z-score measured for `COc1ccc(NC(=O)CN(Cc2ccccc2)S(C)(=O)=O)cc1OC` and print it.
0.00823

Retrieve z-score measured for `COC(=O)/C=C\C(=O)Nc1cccc([N+](=O)[O-])c1` and print it.
1.08

Retrieve z-score measured for `O=C1C=C(c2ccc(Cl)cc2)C(=O)N1Nc1ccccc1` and print it.
2.35

Retrieve z-score measured for `Cc1ccc(/C=N/NC(=S)NC2CCCCC2)o1` and print it.
-0.777

Retrieve z-score measured for `O=C(CCl)N(Cc1cccc([N+](=O)[O-])c1)c1cccc(Cl)c1` and print it.
2.38

Retrieve z-score measured for `CC(C)Sc1nnc([C@H](Cc2ccccc2)NC(=O)OC(C)(C)C)o1` and print it.
0.279

Retrieve z-score measured for `Cn1c2ccccc2c(=O)c2c(O)cccc21` and print it.
-0.342

Retrieve z-score measured for `Cc1ccc(Cn2c(NC(=O)c3ccco3)nc3ccccc32)cc1` and print it.
-0.18

Retrieve z-score measured for CCN(CC)C(=O)CSC1c2ccccc2C(=O)N1c1ccccc1 (stereo unspecified) and print it.
-0.173

Retrieve z-score measured for `Cc1cc(C)nc(S/C=C/C(=O)c2ccccc2)n1` and print it.
1.08

Retrieve z-score measured for `O=C(/C=C/c1cnc2ccccc2n1)NC1CCCCCC1` and print it.
-0.262

Retrieve z-score measured for `Cc1cc(SCC(=O)c2ccccc2)nc(SCC(=O)c2ccccc2)n1` and print it.
-0.199

Retrieve z-score measured for CC(Nc1ccccc1)c1cccnc1 (stereo unspecified) and print it.
-0.305

Every entry's value here was drawn from PubChem BioAssay AID1381.
